Provide the reported MIC of each item.
# System: Clostridium difficile
# Protocol details: MIC against Clostridium difficile, anaerobic broth dilution
# Type: cell-based
# Conditions used: Clostridioides difficile, C. difficile HM-745
Give bare numbers, in µM.

Answered cases to consult:
>  <Compound>
O=C(O)[C@H](Cc1ccccc1)N1C(=O)/C(=C/c2cccc(Cc3ccc(Cl)c(Cl)c3)c2)SC1=S

>  <U>
µM

>  <Test value>
1

$$$$
>  <Compound>
O=C(O)[C@@H](Cc1ccccc1)N1C(=O)/C(=C/c2cccc(Cc3ccccc3)c2)SC1=S

>  <U>
µM

>  <Test value>
1

$$$$
>  <Compound>
O=C(O)[C@H](Cc1ccccc1)N1C(=O)/C(=C/c2cccc(-c3ccc(Cl)c(Cl)c3)c2)SC1=S

>  <U>
µM

>  <Test value>
2

$$$$

# next compound below
Quick one: give measured MIC for Cc1ncc([N+](=O)[O-])n1CCO [Metronidazole, reference compound]
0.5

====

Hi there, I'd appreciate the recorded MIC for every entry that follows.
# Test system: Vancomycin Resistant Staphylococcus aureus (VRSA)
# Protocol details: Broth microdilution MIC/MBC, VRSA
# Assay type: cell-based
# Conditions used: VRSA, VRSA 6, read-out: MIC
One number for each entry, in µM.

// known answers, use as guide
>  <Compound>
O=C(O)[C@H](Cc1ccccc1)N1C(=O)/C(=C/c2cccc(OC/C=C/c3ccc(Cl)c(Cl)c3)c2)SC1=S [Rh 6]

>  <Test target>
Vancomycin Resistant Staphylococcus aureus (VRSA)

>  <U>
µM

>  <MIC>
4

$$$$
>  <Compound>
O=C(O)[C@H](Cc1ccccc1)N1C(=O)/C(=C/c2cccc(Oc3ccc(Cl)c(Cl)c3)c2)SC1=S [Rh 1]

>  <Test target>
Vancomycin Resistant Staphylococcus aureus (VRSA)

>  <U>
µM

>  <MIC>
4

$$$$
>  <Compound>
O=C(O)[C@@H](Cc1ccccc1)N1C(=O)/C(=C/c2cccc(Cc3ccccc3)c2)SC1=S [Rh 7]

>  <Test target>
Vancomycin Resistant Staphylococcus aureus (VRSA)

>  <U>
µM

>  <MIC>
8

$$$$

Switching to the query record.
Please list MIC recorded for the compound O=C(O)[C@H](Cc1ccccc1)N1C(=O)/C(=C/c2cccc(-c3ccc(Cl)c(Cl)c3)c2)SC1=S [Rh 2]
4

====

Consider the following compounds; for each one, report its MBC.
# Test system: B. cereus
# Protocol details: Broth microdilution MIC/MBC, B. cereus
# Format: cell-based
# Conditions used: Bacillus cereus, B. cereus BAG1X2-1 NR-28578; read-out: MBC
Include the unit right after the number.

Consider the reported MBC for these compounds:
>  <Line notation>
O=C(O)[C@@H](Cc1ccccc1)N1C(=O)/C(=C/c2cccc(Oc3ccc(F)cc3)c2)SC1=S

>  <Test value>
8 µM

$$$$
>  <Line notation>
O=C(O)[C@H](Cc1ccccc1)N1C(=O)/C(=C/c2cccc(Cc3ccc(Cl)c(Cl)c3)c2)SC1=S

>  <Test value>
4 µM

$$$$
>  <Line notation>
O=C(O)[C@H](Cc1ccccc1)N1C(=O)/C(=C/c2cccc(-c3ccc(Cl)c(Cl)c3)c2)SC1=S

>  <Test value>
4 µM

$$$$

Please look at O=C(O)[C@H](Cc1ccccc1)N1C(=O)/C(=C/c2cccc(Oc3ccc(Cl)c(Cl)c3)c2)SC1=S and tell me its recorded MBC on B. cereus.
4 µM

====

# Tested on: Clostridium difficile
# Protocol details: MIC against Clostridium difficile, anaerobic broth dilution
# Format: cell-based
# Conditions used: Clostridioides difficile, C. difficile HM-745
Where a name gives a salt, the structure may show the parent alone.
Record form. Attribute: MIC. Fill in for each entry.
Give bare numbers, in µM.

Answered examples (4):
>  <Compound>
O=C(O)[C@H](Cc1ccccc1)N1C(=O)/C(=C/c2cccc(-c3ccccc3)c2)SC1=S

>  <Test value>
4

$$$$
>  <Compound>
O=C(O)[C@H](Cc1ccccc1)N1C(=O)/C(=C/c2cccc(OC/C=C/c3ccc(Cl)c(Cl)c3)c2)SC1=S

>  <Test value>
4

$$$$
>  <Compound>
O=C(O)[C@H](Cc1ccccc1)N1C(=O)/C(=C/c2cccc(Oc3ccc(Cl)c(Cl)c3)c2)SC1=S

>  <Test value>
2

$$$$
>  <Compound>
O=C(O)[C@@H](Cc1ccccc1)N1C(=O)/C(=C/c2cccc(Oc3ccc(F)cc3)c2)SC1=S

>  <Test value>
2

$$$$

The record that follows has no MIC shown yet.
Determine from records and report MIC for CN[C@H](CC(C)C)C(=O)N[C@H]1C(=O)N[C@@H](CC(N)=O)C(=O)N[C@H]2C(=O)N[C@H]3C(=O)N[C@H](C(=O)N[C@H](C(=O)O)c4cc(O)cc(O)c4-c4cc3ccc4O)[C@H](O)c3ccc(c(Cl)c3)Oc3cc2cc(c3O[C@@H]2O[C@H](CO)[C@@H](O)[C@H](O)[C@H]2O[C@H]2C[C@](C)(N)[C@H](O)[C@H](C)O2)Oc2ccc(cc2Cl)[C@H]1O [Vancomycin, vancomycin hydrochloride, reference compound]
0.125

====

# System: Vancomycin Resistant Staphylococcus aureus (VRSA)
# Protocol details: Broth microdilution MIC/MBC, VRSA
# Format: cell-based
# Conditions used: VRSA, VRSA 9, read-out: MIC
Measurement name: MIC (µM)
Numbers only, in µM.

Solved cases (2 shown):
>  <Line notation>
O=C(O)[C@H](Cc1ccccc1)N1C(=O)/C(=C/c2cccc(Cc3ccc(Cl)c(Cl)c3)c2)SC1=S

>  <U>
µM

>  <MIC>
8

$$$$
>  <Line notation>
O=C(O)[C@@H](Cc1ccccc1)N1C(=O)/C(=C/c2cccc(Cc3ccccc3)c2)SC1=S

>  <U>
µM

>  <MIC>
16

$$$$

In the following, a different molecule is considered.
For the molecule O=C(O)[C@H](Cc1ccccc1)N1C(=O)/C(=C/c2cccc(-c3ccccc3)c2)SC1=S , report MIC.
16

====

Exercise: for every item that follows, state its recorded MBC.
# System: B. cereus
# Protocol details: Broth microdilution MIC/MBC, B. cereus
# Assay type: cell-based
# Conditions used: Bacillus cereus, B. cereus BAG1X2-1 NR-28578; read-out: MBC
Numbers only, in µM.

Past entries and their recorded results:
>  <Compound>
CC(=O)NC[C@H]1CN(c2ccc(N3CCOCC3)c(F)c2)C(=O)O1 [Linezolid, linezolid, reference compound]

>  <U>
µM

>  <MBC>
2

$$$$
>  <Compound>
O=C(O)[C@H](Cc1ccccc1)N1C(=O)/C(=C/c2cccc(OC/C=C/c3ccc(Cl)c(Cl)c3)c2)SC1=S

>  <U>
µM

>  <MBC>
4

$$$$
>  <Compound>
O=C(O)[C@@H](Cc1ccccc1)N1C(=O)/C(=C/c2cccc(Cc3ccccc3)c2)SC1=S

>  <U>
µM

>  <MBC>
4

$$$$

We now examine a further compound.
For the compound O=C(O)[C@H](Cc1ccccc1)N1C(=O)/C(=C/c2cccc(-c3ccccc3)c2)SC1=S , give its measured MBC value.
4

====

# Tested on: Vancomycin Resistant Staphylococcus aureus (VRSA)
# Protocol details: Broth microdilution MIC/MBC, VRSA
# Assay type: cell-based
# Conditions used: VRSA, VRSA 3a, read-out: MIC
Measurement name: MIC (µM)
Numbers only, in µM.

Reference set (2 entries):
>  <Compound>
O=C(O)[C@H](Cc1ccccc1)N1C(=O)/C(=C/c2cccc(Oc3ccc(Cl)c(Cl)c3)c2)SC1=S [Rh 1]

>  <MIC / µM>
8

$$$$
>  <Compound>
O=C(O)[C@H](Cc1ccccc1)N1C(=O)/C(=C/c2cccc(-c3ccc(Cl)c(Cl)c3)c2)SC1=S [Rh 2]

>  <MIC / µM>
4

$$$$

Proceed to the following item.
Quick one: give measured MIC for O=C(O)[C@@H](Cc1ccccc1)N1C(=O)/C(=C/c2cccc(Cc3ccccc3)c2)SC1=S [Rh 7]
8

====

Field: MIC. Provide a value for each of the compounds that follow.
# Test system: vancomycin resistant enterococci (VRE) E. faecalis
# Protocol details: Broth microdilution MIC/MBC, VRE E. faecalis
# Type: cell-based
# Conditions used: E. faecalis R712 HM-335; read-out: MIC
One number for each entry, in µM.

>  <Line notation>
O=C(O)[C@@H](Cc1ccccc1)N1C(=O)/C(=C/c2cccc(Oc3ccc(F)cc3)c2)SC1=S

>  <U>
µM

>  <Test value>
16

$$$$
>  <Line notation>
O=C(O)[C@H](Cc1ccccc1)N1C(=O)/C(=C/c2cccc(Oc3ccc(Cl)c(Cl)c3)c2)SC1=S

>  <U>
µM

>  <Test value>
4

$$$$
>  <Line notation>
O=C(O)[C@H](Cc1ccccc1)N1C(=O)/C(=C/c2cccc(Cc3ccc(Cl)c(Cl)c3)c2)SC1=S

>  <U>
µM

>  <Test value>
4

$$$$

Provide one value: measured MIC of O=C(O)[C@H](Cc1ccccc1)N1C(=O)/C(=C/c2cccc(-c3ccc(Cl)c(Cl)c3)c2)SC1=S
4
